test system: Staphylococcus aureus ATCC29213; test: Minimum Inhibitory Concentration (MIC) testing, broth microdilution, Staphylococcus aureus; assay type: cell-based; details: Staphylococcus aureus ATCC29213; read-out: Staphylococcus aureus MICs Activity
Here the recorded MIC is given for each entry.

>  <Molecule>
NC(=O)c1c(F)ccc(OCc2csc3ccccc23)c1F

>  <MIC>
16 to 64 µg/mL

$$$$
>  <Molecule>
COc1ccc(-c2nc(COc3ccc(F)c(C(N)=O)c3F)sc2-c2nccs2)cc1

>  <MIC>
< 8 µg/mL

$$$$
>  <Molecule>
CCCCCCOc1nccc(C(N)=O)c1Cl [Example 174, 3-Chloro-2-(hexyloxy)isonicotinamide]

>  <MIC>
16 to 64 µg/mL

$$$$
>  <Molecule>
NC(=O)c1c(F)ccc(OCc2coc(-c3ccc(Cl)cc3)n2)c1F

>  <MIC>
< 8 µg/mL

$$$$
>  <Molecule>
COc1cccc(COc2ccc(F)c(C(N)=O)c2F)c1

>  <MIC>
16 to 64 µg/mL

$$$$
>  <Molecule>
NC(=O)c1c(F)ccc(OCc2cncs2)c1F

>  <MIC>
> 64 µg/mL

$$$$
>  <Molecule>
NC(=O)c1c(F)ccc(OCc2nc(CCc3ccccc3)cs2)c1F

>  <MIC>
< 8 µg/mL

$$$$
>  <Molecule>
NC(=O)c1c(F)ccc(OCc2nc(-c3ccc(Cl)cc3)co2)c1F

>  <MIC>
< 8 µg/mL

$$$$
>  <Molecule>
CCCCCCOc1ccc(F)c(C(N)=O)c1Cl

>  <MIC>
16 to 64 µg/mL

$$$$
>  <Molecule>
NC(=O)c1c(F)ccc(OCc2nc3ccc(Cl)cc3s2)c1F

>  <MIC>
< 8 µg/mL

$$$$
>  <Molecule>
NC(=O)c1c(F)ccc(OCc2nc3cc(Cl)cnc3s2)c1F

>  <MIC>
< 8 µg/mL

$$$$
>  <Molecule>
NC(=O)c1c(F)ccc(OCc2nc3cc(Cl)ccc3s2)c1Cl

>  <MIC>
< 8 µg/mL

$$$$
>  <Molecule>
CCCCCOc1cccc(C(N)=O)c1 [Example 5, 3-(Pentyloxy)benzenecarboxamide]

>  <MIC>
16 to 64 µg/mL

$$$$
>  <Molecule>
CCCCOC(=O)CCCOc1ccc(F)c(C(N)=O)c1F

>  <MIC>
16 to 64 µg/mL

$$$$
>  <Molecule>
C=CCCCCOc1cccc(C(N)=O)c1 [Example 15, 3-(5-Hexenyloxy)benzenecarboxamide]

>  <MIC>
16 to 64 µg/mL

$$$$
>  <Molecule>
CCCCOC(=O)C=CCOc1ccc(F)c(C(N)=O)c1F

>  <MIC>
16 to 64 µg/mL

$$$$
>  <Molecule>
NC(=O)c1c(F)ccc(OCc2nc3cc(F)ccc3s2)c1F

>  <MIC>
< 8 µg/mL

$$$$
>  <Molecule>
NC(=O)c1c(F)ccc(OCc2cccc(OC(F)(F)F)c2)c1F

>  <MIC>
< 8 µg/mL

$$$$
>  <Molecule>
NC(=O)c1c(F)ccc(OCc2cccs2)c1F

>  <MIC>
16 to 64 µg/mL

$$$$
>  <Molecule>
NC(=O)c1c(F)ccc(OCc2csc(-c3ccc(OC(F)(F)F)cc3)n2)c1F

>  <MIC>
< 8 µg/mL

$$$$
>  <Molecule>
C#CCCCCCCCCCOc1cccc(C(N)=O)c1 [Example 46, 3-(10-Undecynyloxy)benzenecarboxamide]

>  <MIC>
< 8 µg/mL

$$$$
>  <Molecule>
CCC1CC1CCCCOc1cccc(C(N)=O)c1 (centres unmarked)

>  <MIC>
< 8 µg/mL

$$$$
>  <Molecule>
NC(=O)c1c(F)ccc(OCc2noc(-c3ccsc3)n2)c1F

>  <MIC>
16 to 64 µg/mL

$$$$
>  <Molecule>
NC(=O)c1c(F)ccc(OCc2cc(-c3ccccc3)on2)c1F

>  <MIC>
< 8 µg/mL

$$$$
>  <Molecule>
NC(=O)c1c(F)ccc(OCc2nc(-c3ccccc3)cs2)c1F

>  <MIC>
< 8 µg/mL

$$$$
>  <Molecule>
NC(=O)c1c(F)ccc(OCc2csc(Nc3ccccc3)n2)c1F

>  <MIC>
16 to 64 µg/mL

$$$$
>  <Molecule>
NC(=O)c1c(Cl)ccc(OCc2nc(-c3ccc(Cl)cc3)cs2)c1F

>  <MIC>
< 8 µg/mL

$$$$
>  <Molecule>
NC(=O)c1c(F)ccc(OCc2cccc(Cl)c2)c1F

>  <MIC>
16 to 64 µg/mL

$$$$
>  <Molecule>
NC(=O)c1c(F)ccc(OCc2cccc(-n3cccc3)c2)c1F

>  <MIC>
< 8 µg/mL

$$$$
>  <Molecule>
CCc1cccc2sc(COc3ccc(F)c(C(N)=O)c3F)nc12

>  <MIC>
< 8 µg/mL

$$$$
>  <Molecule>
NC(=O)c1cccc(OCc2nc(-c3ccc(Cl)cc3)cs2)c1F

>  <MIC>
< 8 µg/mL

$$$$
>  <Molecule>
COc1ccc(-c2nc(COc3ccc(F)c(C(N)=O)c3F)sc2-c2ccc(N)cc2)cc1

>  <MIC>
< 8 µg/mL

$$$$
>  <Molecule>
NC(=O)c1c(F)ccc(OCc2nc(-c3ccc(O)cc3)no2)c1F

>  <MIC>
< 8 µg/mL

$$$$
>  <Molecule>
Cc1ccc2sc(COc3ccc(F)c(C(N)=O)c3F)cc2c1

>  <MIC>
< 8 µg/mL

$$$$
>  <Molecule>
NC(=O)c1cc(OCc2nc(-c3ccc(Cl)cc3)no2)ccc1F

>  <MIC>
16 to 64 µg/mL

$$$$
>  <Molecule>
Cc1cc(COc2ccc(F)c(C(N)=O)c2F)ccc1F

>  <MIC>
16 to 64 µg/mL

$$$$
>  <Molecule>
C#CCCCCCCCCCOc1ccc(F)c(C(N)=O)c1F

>  <MIC>
< 8 µg/mL

$$$$
>  <Molecule>
NC(=O)c1c(Cl)ccc(OCc2nc(-c3ccc(Cl)cc3)no2)c1F

>  <MIC>
< 8 µg/mL

$$$$
